Sourced from paper PMC8253220

# Lookup of reported inhibition at 10 µM keyed by entry
- assayedTarget: UniProt:P35968
- protocolDescription: In vitro VEGFR-2 tyrosine kinase inhibitory assay (Z'-LYTE, SelectScreen)
- Assay type: biochemical
- setupConditions: 10 µM single dose
Could you give me the number in %? Just the number is fine.

Would you please look over these solved cases?
q: State its inhibition at 10 µM for this compound: Cc1c(C(=O)NCCCC(=O)NO)sc2ncnc(Nc3ccc(Cl)cc3)c12 [Compound 20c]
a: 35

q: State its inhibition at 10 µM for this compound: CCOC(=O)CCNC(=O)c1sc2ncnc(Nc3ccc(Cl)cc3)c2c1C [Compound 17c]
a: 87

q: State its inhibition at 10 µM for this compound: Cc1c(C(=O)NO)sc2ncnc(Nc3ccc(NC(=O)Nc4cccc(C(F)(F)F)c4)cc3)c12
a: 104

New cases:
q: State its inhibition at 10 µM for this compound: Cc1c(C(=O)NO)sc2ncnc(Nc3ccc(F)c(Cl)c3)c12 [Compound 15d]
a: 54

q: State its inhibition at 10 µM for this compound: Cc1c(C(=O)NCCCC(=O)NO)sc2ncnc(Nc3ccc(NC(=O)Nc4ccccc4)cc3)c12 [Compound 12a]
a: 48

q: State its inhibition at 10 µM for this compound: COc1cccc(NC(=O)Nc2ccc(Nc3ncnc4sc(C(=O)NCCC(=O)NO)c(C)c34)cc2)c1 [Compound 11b]
a: 75

q: State its inhibition at 10 µM for this compound: Cc1c(C(=O)NCCC(=O)NO)sc2ncnc(Nc3ccccc3)c12 [Compound 19b]
a: 13

q: State its inhibition at 10 µM for this compound: COc1cccc(NC(=O)Nc2ccc(Nc3ncnc4sc(C(=O)NO)c(C)c34)cc2)c1
a: 78

q: State its inhibition at 10 µM for this compound: Cc1c(C(=O)NO)sc2ncnc(Nc3cccc4[nH]cnc34)c12 [Compound 15a]
a: 36

q: State its inhibition at 10 µM for this compound: Cc1c(C(=O)NCCC(=O)NO)sc2ncnc(Nc3ccc(F)c(Cl)c3)c12 [Compound 19d]
a: 26

* * *

propertyLabel: melting point

Would you please look over these solved cases?
q: State its melting point for this molecule: COc1cccc(NC(=O)Nc2ccc(Nc3ncnc4sc(C(=O)NO)c(C)c34)cc2)c1
a: > 200 °C

q: State its melting point for this molecule: CCOC(=O)CCCNC(=O)c1sc2ncnc(Nc3ccccc3)c2c1C [Compound 18b]
a: 145 to 147 °C

q: State its melting point for this molecule: CCOC(=O)CCNC(=O)c1sc2ncnc(Nc3ccc(Cl)cc3)c2c1C [Compound 17c]
a: 202 °C

q: State its melting point for this molecule: Cc1c(C(=O)NCCCC(=O)NO)sc2ncnc(Nc3ccc(F)c(Cl)c3)c12 [Compound 20d]
a: 244 to 246 °C

q: State its melting point for this molecule: CCOC(=O)c1sc2ncnc(Nc3ccc4[nH]cnc4c3)c2c1C [Compound 14a]
a: 250 to 251 °C

Now turn to the next molecule.
q: State its melting point for this molecule: CCOC(=O)c1sc2ncnc(Nc3ccc(F)c(Cl)c3)c2c1C [Compound 14d]
a: 154 to 156 °C

* * *

Quick rule: melting point of at least 200 °C means yes (1), below that means no (0).

q: Confirm if melting point reported for the compound Cc1c(C(=O)NCCC(=O)NO)sc2ncnc(Nc3ccc(NC(=O)Nc4cccc(C(F)(F)F)c4)cc3)c12 [Compound 11c] is 200 °C or above.
a: yes (1)

New cases:
q: Confirm if melting point reported for the compound Cc1c(C(=O)NO)sc2ncnc(Nc3ccc(Cl)cc3)c12 [Compound 15c] is 200 °C or above.
a: yes (1)

q: Confirm if melting point reported for the compound Cc1c(C(=O)NO)sc2ncnc(Nc3ccc(NC(=O)Nc4cccc(C(F)(F)F)c4)cc3)c12 is 200 °C or above.
a: yes (1)

q: Confirm if melting point reported for the compound Cc1c(C(=O)NCCCC(=O)NO)sc2ncnc(Nc3ccc(Cl)cc3)c12 [Compound 20c] is 200 °C or above.
a: yes (1)

q: Confirm if melting point reported for the compound CCOC(=O)CCNC(=O)c1sc2ncnc(Nc3ccc(F)c(Cl)c3)c2c1C [Compound 17d] is 200 °C or above.
a: no (0)

* * *

- Test system: full NCI 60 cell panel
- protocolDescription: NCI one-dose screen, whole panel statistics
- Format: cell-based, human
- setupConditions: 1.00E-5 Molar
propertyLabel: Delta (one dose mean graph) (%)
Could you give me the number in %? Just the number is fine.

q: State its Delta (one dose mean graph) for this molecule: Cc1c(C(=O)NCCCC(=O)NO)sc2ncnc(Nc3ccc(NC(=O)Nc4cccc(C(F)(F)F)c4)cc3)c12 [Compound 12c]
a: 33.40

q: State its Delta (one dose mean graph) for this molecule: COc1cccc(NC(=O)Nc2ccc(Nc3ncnc4sc(C(=O)NCCCC(=O)NO)c(C)c34)cc2)c1 [Compound 12b]
a: 18.34

q: State its Delta (one dose mean graph) for this molecule: Cc1c(C(=O)NCCC(=O)NO)sc2ncnc(Nc3ccc(NC(=O)Nc4cccc(C(F)(F)F)c4)cc3)c12 [Compound 11c]
a: 23.75

New cases:
q: State its Delta (one dose mean graph) for this molecule: COc1cccc(NC(=O)Nc2ccc(Nc3ncnc4sc(C(=O)NO)c(C)c34)cc2)c1 [Compound 7b]
a: 18.14

q: State its Delta (one dose mean graph) for this molecule: Cc1c(C(=O)NO)sc2ncnc(Nc3cccc4[nH]cnc34)c12 [Compound 15a]
a: 22.48

q: State its Delta (one dose mean graph) for this molecule: Cc1c(C(=O)NCCC(=O)NO)sc2ncnc(Nc3ccc(F)c(Cl)c3)c12 [Compound 19d]
a: 19.56

q: State its Delta (one dose mean graph) for this molecule: Cc1c(C(=O)NCCC(=O)NO)sc2ncnc(Nc3ccc(Cl)cc3)c12 [Compound 19c]
a: 24.83

* * *

- assayedTarget: EGFR (Homo sapiens)
- Sequence (P00533 25-1210): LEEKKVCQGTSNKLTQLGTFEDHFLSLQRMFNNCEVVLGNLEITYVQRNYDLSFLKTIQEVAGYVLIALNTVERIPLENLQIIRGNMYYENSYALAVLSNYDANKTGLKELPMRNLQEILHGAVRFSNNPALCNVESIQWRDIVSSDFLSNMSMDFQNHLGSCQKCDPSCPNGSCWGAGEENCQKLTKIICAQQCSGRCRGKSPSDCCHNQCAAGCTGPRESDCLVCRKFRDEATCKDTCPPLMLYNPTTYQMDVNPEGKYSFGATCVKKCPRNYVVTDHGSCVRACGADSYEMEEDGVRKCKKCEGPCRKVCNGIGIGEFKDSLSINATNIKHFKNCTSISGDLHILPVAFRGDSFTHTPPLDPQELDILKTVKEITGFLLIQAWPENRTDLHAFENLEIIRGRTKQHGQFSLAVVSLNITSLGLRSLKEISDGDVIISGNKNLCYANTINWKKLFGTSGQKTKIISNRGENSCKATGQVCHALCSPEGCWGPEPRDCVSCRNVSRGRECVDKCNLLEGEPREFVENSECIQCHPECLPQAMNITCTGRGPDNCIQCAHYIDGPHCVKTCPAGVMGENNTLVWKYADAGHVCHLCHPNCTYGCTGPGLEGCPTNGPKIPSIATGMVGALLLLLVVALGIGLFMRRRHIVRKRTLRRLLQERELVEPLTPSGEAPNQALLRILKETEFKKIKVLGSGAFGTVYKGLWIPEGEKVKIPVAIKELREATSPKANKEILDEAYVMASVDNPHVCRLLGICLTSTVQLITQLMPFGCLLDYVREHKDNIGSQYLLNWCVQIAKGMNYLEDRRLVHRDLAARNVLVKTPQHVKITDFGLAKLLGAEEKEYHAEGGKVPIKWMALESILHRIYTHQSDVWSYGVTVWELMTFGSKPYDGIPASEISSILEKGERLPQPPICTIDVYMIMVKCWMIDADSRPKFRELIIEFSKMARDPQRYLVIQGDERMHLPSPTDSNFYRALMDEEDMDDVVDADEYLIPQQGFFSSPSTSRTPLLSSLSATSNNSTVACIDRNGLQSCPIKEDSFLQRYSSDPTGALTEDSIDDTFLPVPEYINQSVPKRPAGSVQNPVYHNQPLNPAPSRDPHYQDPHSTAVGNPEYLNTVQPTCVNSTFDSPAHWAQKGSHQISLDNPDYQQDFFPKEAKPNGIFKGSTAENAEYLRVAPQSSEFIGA
- protocolDescription: In vitro EGFR tyrosine kinase inhibitory assay (Z'-LYTE, SelectScreen)
- Type: biochemical
- setupConditions: 10 nM compound, 10 μM ATP; read-out: % Inhibition mean, EGFR (ErbB1)
- Procedure: The target compounds were evaluated for their in vitro inhibitory activities against EGFR, VEGFR-2, and HDAC6. […] Initially, all of the synthesised target compounds were evaluated for their percent inhibitory activity against EGFR, VEGFR-2, and HDACs at 10 µM single dose concentration, in which their mean percent inhibition is summarised in (Figure 5, Tables 1 and [2]). […]
# Lookup of reported inhibition at 0.01 µM keyed by entry
Could you give me the number in %? Just the number is fine.

Would you please look over these solved cases?
q: State its inhibition at 0.01 µM for this molecule: Cc1c(C(=O)NO)sc2ncnc(Nc3ccc(Cl)cc3)c12 [Compound 15c]
a: 34

q: State its inhibition at 0.01 µM for this molecule: Cc1c(C(=O)NCCCC(=O)NO)sc2ncnc(Nc3ccc(NC(=O)Nc4cccc(C(F)(F)F)c4)cc3)c12 [Compound 12c]
a: 4

q: State its inhibition at 0.01 µM for this molecule: Cc1c(C(=O)NCCCC(=O)NO)sc2ncnc(Nc3ccccc3)c12 [Compound 20b]
a: 7

Now turn to the next molecule.
q: State its inhibition at 0.01 µM for this molecule: Cc1c(C(=O)NCCCC(=O)NO)sc2ncnc(Nc3ccc(F)c(Cl)c3)c12 [Compound 20d]
a: 14

* * *

Measurement record for VEGFR-2 (Homo sapiens); quantity recorded: pIC50.
// scale note: pIC50 = -log10(conc_M); give the bare number

q: State its pIC50 for this compound: Cc1c(C(=O)NCCCC(=O)NO)sc2ncnc(Nc3ccc(NC(=O)Nc4cccc(C(F)(F)F)c4)cc3)c12 [Compound 12c]
a: 6.73

q: State its pIC50 for this compound: Cc1c(C(=O)NO)sc2ncnc(Nc3ccc(NC(=O)Nc4cccc(C(F)(F)F)c4)cc3)c12
a: 6.72

Now turn to the next compound.
q: State its pIC50 for this compound: Cc1c(C(=O)NO)sc2ncnc(Nc3ccc(Cl)cc3)c12 [Compound 15c]
a: 5.25

* * *

- assayedTarget: HDAC6 (Homo sapiens, UniProt Q9UBN7)
- Construct: purchased BPS Bioscience 50006
- Sequence (Q9UBN7 whole entry): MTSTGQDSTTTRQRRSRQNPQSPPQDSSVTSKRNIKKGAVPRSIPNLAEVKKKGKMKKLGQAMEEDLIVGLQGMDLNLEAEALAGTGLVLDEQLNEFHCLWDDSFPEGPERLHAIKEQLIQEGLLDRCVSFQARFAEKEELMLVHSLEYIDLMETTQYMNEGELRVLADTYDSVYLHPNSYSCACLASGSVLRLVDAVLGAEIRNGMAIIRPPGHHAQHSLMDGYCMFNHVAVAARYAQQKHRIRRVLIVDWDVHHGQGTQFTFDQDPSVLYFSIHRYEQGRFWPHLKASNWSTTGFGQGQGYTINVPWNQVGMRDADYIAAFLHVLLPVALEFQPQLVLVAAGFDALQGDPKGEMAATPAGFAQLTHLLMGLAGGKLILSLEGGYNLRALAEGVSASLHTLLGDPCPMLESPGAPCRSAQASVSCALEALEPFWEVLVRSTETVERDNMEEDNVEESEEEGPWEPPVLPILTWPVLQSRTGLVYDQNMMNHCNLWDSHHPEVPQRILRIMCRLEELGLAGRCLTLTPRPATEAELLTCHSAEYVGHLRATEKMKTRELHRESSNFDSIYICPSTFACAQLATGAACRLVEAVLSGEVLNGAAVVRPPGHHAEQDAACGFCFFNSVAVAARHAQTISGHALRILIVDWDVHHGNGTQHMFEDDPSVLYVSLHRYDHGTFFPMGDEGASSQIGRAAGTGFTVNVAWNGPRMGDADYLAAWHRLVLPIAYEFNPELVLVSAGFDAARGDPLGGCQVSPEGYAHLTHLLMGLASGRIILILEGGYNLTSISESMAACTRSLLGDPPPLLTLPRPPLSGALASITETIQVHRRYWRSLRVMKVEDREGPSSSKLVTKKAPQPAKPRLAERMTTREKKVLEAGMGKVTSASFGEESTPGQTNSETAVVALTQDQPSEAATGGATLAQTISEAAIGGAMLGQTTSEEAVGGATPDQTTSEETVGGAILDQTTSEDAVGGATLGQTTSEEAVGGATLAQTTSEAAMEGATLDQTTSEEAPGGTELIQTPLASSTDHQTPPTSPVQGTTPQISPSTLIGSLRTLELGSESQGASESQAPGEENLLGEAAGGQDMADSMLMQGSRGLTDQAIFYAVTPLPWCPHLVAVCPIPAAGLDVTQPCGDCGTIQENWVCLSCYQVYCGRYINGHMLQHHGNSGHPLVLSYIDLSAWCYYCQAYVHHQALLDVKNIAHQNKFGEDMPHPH
- protocolDescription: In vitro HDAC6 inhibitory assay (BPS Bioscience, fluorogenic)
- Type: biochemical
- setupConditions: 10 µM
propertyLabel: inhibition at 10 µM (%)
Could you give me the number in %? Just the number is fine.

q: State its inhibition at 10 µM for this compound: Cc1c(C(=O)NCCCC(=O)NO)sc2ncnc(Nc3ccc(NC(=O)Nc4cccc(C(F)(F)F)c4)cc3)c12 [Compound 12c]
a: 23

q: State its inhibition at 10 µM for this compound: Cc1c(C(=O)NO)sc2ncnc(Nc3ccc(F)c(Cl)c3)c12 [Compound 15d]
a: 7

q: State its inhibition at 10 µM for this compound: Cc1c(C(=O)NO)sc2ncnc(Nc3ccc(NC(=O)Nc4cccc(C(F)(F)F)c4)cc3)c12 [Compound 7c]
a: 8

q: State its inhibition at 10 µM for this compound: Cc1c(C(=O)NCCCC(=O)NO)sc2ncnc(Nc3ccc(Cl)cc3)c12 [Compound 20c]
a: 9

q: State its inhibition at 10 µM for this compound: Cc1c(C(=O)NO)sc2ncnc(Nc3cccc4[nH]cnc34)c12 [Compound 15a]
a: 7

q: State its inhibition at 10 µM for this compound: Cc1c(C(=O)NCCC(=O)NO)sc2ncnc(Nc3ccc(Cl)cc3)c12 [Compound 19c]
a: 7

q: State its inhibition at 10 µM for this compound: COc1cccc(NC(=O)Nc2ccc(Nc3ncnc4sc(C(=O)NCCCC(=O)NO)c(C)c34)cc2)c1 [Compound 12b]
a: 13

q: State its inhibition at 10 µM for this compound: Cc1c(C(=O)NCCC(=O)NO)sc2ncnc(Nc3ccc(NC(=O)Nc4cccc(C(F)(F)F)c4)cc3)c12 [Compound 11c]
a: 8
